Source listed as PubChem BioAssay.

system-tested: NADPH oxidase 2 (Homo sapiens)
protocol-description: NOX2-dependent H2O2 signal modulators, primary screen, NOX inhibitor project, cell-based, HEK293-NOX2, PMA-stimulated, Amplex Red fluorescence (AID 1159); further: test concentration not given here
test-context: 45 min, higher = more signal, called active from +8 up or from −8 down
test-readout: z-score
No unit in the answer, please; the number alone is enough.

What the record says about "C=C(/C(=C/C[C@H](OC(=O)c1ccncc1)c1ccc(CO)o1)c1cc(C(=O)OC)ccc1OC)C(C)C" : z-score is -1.06

"COc1ccc([Si](C)(C)[C@@H]2[C@@H](CC(=O)N(CCO)Cc3ccccc3)O[C@]3(C(=O)N(Cc4cccc(N5C(=O)c6cccc7cccc5c67)c4)c4ccccc43)[C@H]2C)cc1" yielded z-score of 1.09

// z-score lookup, molecule = "COc1ccccc1CN1C(=O)c2ccccc2[C@](Cc2ccccc2I)(C(=O)NCC(F)(F)F)[C@@H]1c1ccc(CO)cc1" , result: 1.71

# z-score (molecule: "O=C1O[C@@H](c2ccccc2)[C@@H](c2ccccc2)N2[C@@H](c3ccc(O)cc3)[C@]3(C(=O)Nc4ccc(C#CC5(O)CCCCCC5)cc43)[C@@H](C(=O)NC[C@H](O)c3ccccc3)[C@H]12" ) is 1.14

CC1CC/C=C\[C@H]2OC34C=CCN(c5ccc(Cl)cc5)C(=O)[C@H]3N(CCCCCO)C(=O)[C@]4(C)C2C(=O)O1 (stereo partly specified) yielded z-score of 0.57

z-score reading for "O=C1O[C@H](c2ccccc2)[C@H](c2ccccc2)N2[C@H]1[C@@H](C(=O)Nc1nc3ccccc3s1)[C@]1(C(=O)Nc3ccccc31)[C@H]2c1ccc(OCCO)cc1" : 0.499

###

protocol-description: S. cerevisiae growth modulation with rapamycin, primary screen, strain BY4716, OD600, 96 h (AID 1091); further: test concentration not given here
test-context: higher = more signal, called active from +8 up or from −8 down
Active and inactive are the calls of the source.
Quick list: z-score per entry.

For record "COc1ccc(NC(=O)O[C@H]2[C@H](OC(=O)Nc3ccccc3)[C@H](OC(=O)Nc3ccccc3)[C@@H](OC)O[C@@H]2CO)cc1" the listed z-score is 3.25 (inactive)

Field z-score (entry "COc1ccc([Si](C)(C)[C@@H]2[C@@H](CC(=O)N3Cc4ccccc4C[C@H]3CO)O[C@]3(C(=O)N(C)c4ccccc43)[C@H]2C)cc1" ) reads 1.86 (inactive)

Recorded result, CN1C(=O)C2C=CC(C(O)c3ccc(F)cc3)N(Nc3ccccc3)C2C1=O (stereo not drawn) , z-score: 1.97 (inactive)

###

protocol-description: S. cerevisiae RM11-1a growth modifiers, primary screen, strain RM11-1a, OD600, basal, 24 h (AID 1177);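 further: cultures grown under basal conditions with no added stressor; test concentration not given here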
test-context: OD600, 24 h, higher = more signal, called active from +8 up or from −8 down
z-score class ranges: band 1: < -0.3; band 2: ≥ -0.3 and < 0.5; band 3: ≥ 0.5

compound: CC(C)C(CO)N1C(=O)[C@@H]2C3C(=O)OCCC/C=C\[C@H]3OC23C=CCN(C(C)(C)C)C(=O)[C@@H]13 (stereo partly specified)
assigned-category: band 1

Data request: Using the reported z-score, which band applies to "NC(=O)NCC#Cc1ccc2c(c1)[C@]1(C(=O)N2)[C@H](C(=O)O)[C@H]2C(=O)O[C@H](c3ccccc3)[C@H](c3ccccc3)N2[C@@H]1c1ccc(OCCO)cc1" ?
Data returned: band 2

Data request: Pick a category. Item: "COCC1=C2[C@@H](CCc3ccccc3)OB(O)C[C@@H]2[C@@H]2C(=O)C=CC(=O)[C@@H]2C1"
Data returned: band 2

Data request: Where would Cn1cccc1C(O)C1C=CC2C(=O)NC(=O)C2N1Nc1ccc(Cl)cc1Cl (stereo unspecified) land among the classes by reported z-score?
Data returned: band 2

Data request: # bin lookup: classify "Cc1ccc(S[C@]2(C(=O)NCC(F)(F)F)CC(=O)N(Cc3ccccc3)[C@@H]2c2ccc(CO)cc2I)cc1" by its z-score
Data returned: band 1

###

system-tested: Carbonic anhydrase 2 (Homo sapiens) (UniProt P00918)
protocol-description: CAII small-molecule binders, profiling panel, biochemical, small-molecule microarray, Alexa647-labelled CAII (AID 1122)
test-context: CAII-A647 binding fluorescence, higher = more signal
test-readout: composite z-score

The molecule identified as "[N-]=[N+]=NCc1ccccc1C[C@@]1(C(=O)NCc2ccccc2)N=C(c2ccc(OCCCO)cc2)O[C@@H]1c1ccccc1N=[N+]=[N-]" registered its composite z-score at 0.301

Query "[N-]=[N+]=Nc1ccccc1[C@H]1OC(c2ccc(OCCCO)cc2)=N[C@@]1(CCS(=O)(=O)c1ccccc1)C(=O)NCCN1CCOCC1" yields composite z-score of 0.449

###

System: PRMT1 (protein arginine N-methyltransferase 1)
protocol-description: PRMT1 binders on small-molecule microarrays, primary screen, biochemical, small-molecule microarray, 635 nm fluorescence (AID 1088);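 further: binding of Prmt1 protein to compounds spotted on small-molecule microarray slides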
test-context: small-molecule microarray binding, higher = more signal
test-readout: composite z-score

These solved cases illustrate the format of a correct answer.
molecule: CC[C@H]1C2=C3C(CC[C@H]4C(OCc5ccc(F)cc5C(F)(F)F)OC[C@](C)([C@@H]34)N(C(=O)OC(C)(C)C)C2)C(COC)C1COC (stereo partly drawn)
test-readout: composite z-score
result: -0.728
--
molecule: C=CCNC(=O)[C@H]1[C@@H]2C(=O)O[C@@H](c3ccccc3)[C@@H](c3ccccc3)N2[C@@H](c2ccc(O)cc2)[C@]12C(=O)N(C(=O)OCCOC)c1ccccc12
test-readout: composite z-score
result: 1.42

Per the reported PRMT1 (protein arginine N-methyltransferase 1) data, "NC(=O)NCC#Cc1ccc2c(c1)[C@]1(C(=O)N2)[C@H](C(=O)NC[C@H](O)c2ccccc2)[C@H]2C(=O)O[C@H](c3ccccc3)[C@H](c3ccccc3)N2[C@@H]1c1ccc(OCCO)cc1" has composite z-score of 0.889

###

protocol-description: basal MM1S mitochondrial membrane potential changes, profiling panel, cell-based, JC-1 fluorescence, 24 h, 100 nL compound (AID 1170); further: test concentration not given here
test-context: higher = more signal
test-readout: z-score
Quick one: just the number, no unit, thanks!

Example entries begin here.
molecule: CCCCCCc1nc(C2CC2)cc2c1[Si](C(C)C)(C(C)C)O[C@H]2c1ccccc1
test-readout: z-score
number: 0.0835
//
molecule: COC(=O)[C@@]1(Cc2ccc(F)cc2)[C@H]2c3cc(C(=O)N(C)C)n(Cc4cc(F)cc5c4OCOC5)c3C[C@H]2CN1C(=O)c1ccccc1
test-readout: z-score
number: -0.942
//
molecule: COCC1=C2[C@@H](CCc3ccccc3)OB(O)C[C@@H]2[C@@H]2C(=O)C=CC(=O)[C@@H]2C1
test-readout: z-score
number: -2.55
//
molecule: [N-]=[N+]=NCc1ccccc1C[C@]1(C(N)=O)N=C(c2ccc(OCCCO)cc2)O[C@H]1c1ccccc1
test-readout: z-score
number: -0.464
//
molecule: COCCOC(=O)N1C(=O)[C@@]2(c3cc(C#CC4=CCCCC4)ccc31)[C@H](c1ccccc1OCCO)N1[C@H](c3ccccc3)[C@H](c3ccccc3)OC(=O)[C@H]1[C@@H]2C(=O)Nc1nc2ccccc2s1
test-readout: z-score
number: -1.08
//
molecule: NCCCCCCNC(=O)[C@@H]1C[C@@H]2C(=O)N[C@@H](CCCCN)C(=O)N2[C@@H]1c1cccc(OCCO)c1
test-readout: z-score
number: -0.451

Kindly note the recorded z-score for "CCC[C@@H]1C[C@@]1(CCC)[C@@H](NC(=O)OCc1ccccc1)c1ccc(-c2ccccc2)cc1" , which is -1.19

Kindly note the recorded z-score for "COC(=O)[C@@]1(Cc2ccc(OC)cc2)[C@H]2c3cc(C(=O)N(C)C)n(C[C@H](O)CO)c3C[C@H]2CN1C(=O)c1ccccc1" , which is -1.03

z-score reading for "O=C1O[C@H](c2ccccc2)[C@H](c2ccccc2)N2[C@H]1[C@@H](C(=O)NC[C@H](O)c1ccccc1)[C@]1(C(=O)Nc3ccc(C#CCCO)cc31)[C@H]2c1ccc(OCCO)cc1" : -0.389

Query "CCOC(=O)C1=CC[C@@H](c2cccc(Cl)c2)N(S(=O)(=O)c2ccc(C)cc2)C1" yields z-score of -0.51

###

system-tested: Pro-neuregulin-1, membrane-bound isoform (Homo sapiens) (UniProt Q02297)
Sequence (Q02297 whole entry, looked up, canonical isoform): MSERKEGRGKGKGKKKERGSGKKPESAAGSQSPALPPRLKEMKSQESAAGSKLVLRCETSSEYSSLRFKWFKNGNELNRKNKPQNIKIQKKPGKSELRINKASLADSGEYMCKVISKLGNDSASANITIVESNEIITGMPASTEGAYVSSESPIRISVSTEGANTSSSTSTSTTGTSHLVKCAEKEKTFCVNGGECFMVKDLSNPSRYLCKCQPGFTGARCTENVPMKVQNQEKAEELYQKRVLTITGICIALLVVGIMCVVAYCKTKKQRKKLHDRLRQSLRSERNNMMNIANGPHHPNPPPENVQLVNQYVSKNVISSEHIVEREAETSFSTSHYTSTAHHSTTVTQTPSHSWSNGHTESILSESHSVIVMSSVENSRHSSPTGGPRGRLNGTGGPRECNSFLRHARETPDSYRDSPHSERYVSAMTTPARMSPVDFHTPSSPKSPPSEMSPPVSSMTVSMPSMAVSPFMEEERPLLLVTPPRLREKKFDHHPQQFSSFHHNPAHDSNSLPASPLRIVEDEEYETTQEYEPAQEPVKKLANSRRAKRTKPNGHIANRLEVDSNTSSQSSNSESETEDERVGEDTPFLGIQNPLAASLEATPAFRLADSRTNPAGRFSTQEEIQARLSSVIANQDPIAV
protocol-description: NRG1 binders on small-molecule microarrays, primary screen, psychiatric disease protein project, biochemical, small-molecule microarray, fluorescence 635/667 (AID 1075);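 further: score combines 667 nm spot fluorescence with signal to noise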
test-context: NRG1 binding, 635 nm fluorescence, higher = more signal
test-readout: composite z-score
// keep it numeric: no unit symbol after the value

Worked set:
molecule: O=C1O[C@H](c2ccccc2)[C@H](c2ccccc2)N2[C@H]1[C@@H](C(=O)O)[C@]1(C(=O)Nc3ccc(C#CC4=CCCCC4)cc31)[C@H]2c1ccc(O)cc1
composite z-score: 0.92
//
molecule: COCCOC(=O)N1C(=O)[C@@]2(c3cc(C#CC4=CCCCC4)ccc31)[C@H](c1ccccc1OCCO)N1[C@H](c3ccccc3)[C@H](c3ccccc3)OC(=O)[C@H]1[C@@H]2C(=O)N1CCCCCCC1
composite z-score: 0.382
//
molecule: O=C1NC(=O)C2C1C=CC(C(O)c1c(F)cccc1Cl)N2Nc1ccc(Cl)cc1Cl (configuration not stated)
composite z-score: 1.37
//
molecule: Cc1cc(C)cc(N2C(=O)CSC2c2cccc([N+](=O)[O-])c2)c1 (configuration not stated)
composite z-score: 1.4
//
molecule: CO[C@H]1O[C@H](CO)[C@@H](OC(=O)Nc2ccccc2-c2ccccc2)[C@H](OC(=O)Nc2ccc3c(c2)OCO3)[C@H]1OC(=O)Nc1ccc2c(c1)OCO2
composite z-score: 1.72

Reported composite z-score ( "CC(C)(C)OC(=O)CC[C@]1(C(=O)NCc2ccccc2)N=C(c2ccc(OCCCO)cc2)O[C@H]1c1ccccc1CN=[N+]=[N-]" ) = 1.22

composite z-score recorded for this molecule, "COC(=O)[C@H](Cc1ccccc1)N1CC(/C=C/C2CC2)=C[C@H]1[C@H](O)Cc1ccccc1" , is 0.821
